biological target: WEE1 (Homo sapiens); construct: purchased Thermo Fisher PR7373A; experiment: Selectivity versus WEE1 assay (ADP-Glo enzymatic assay); assay type: biochemical; conditions: fold difference in selectivity for PKMYT1 over WEE1; banded; ">N" = at least in this band but could be higher
Sequence (P30291 whole entry): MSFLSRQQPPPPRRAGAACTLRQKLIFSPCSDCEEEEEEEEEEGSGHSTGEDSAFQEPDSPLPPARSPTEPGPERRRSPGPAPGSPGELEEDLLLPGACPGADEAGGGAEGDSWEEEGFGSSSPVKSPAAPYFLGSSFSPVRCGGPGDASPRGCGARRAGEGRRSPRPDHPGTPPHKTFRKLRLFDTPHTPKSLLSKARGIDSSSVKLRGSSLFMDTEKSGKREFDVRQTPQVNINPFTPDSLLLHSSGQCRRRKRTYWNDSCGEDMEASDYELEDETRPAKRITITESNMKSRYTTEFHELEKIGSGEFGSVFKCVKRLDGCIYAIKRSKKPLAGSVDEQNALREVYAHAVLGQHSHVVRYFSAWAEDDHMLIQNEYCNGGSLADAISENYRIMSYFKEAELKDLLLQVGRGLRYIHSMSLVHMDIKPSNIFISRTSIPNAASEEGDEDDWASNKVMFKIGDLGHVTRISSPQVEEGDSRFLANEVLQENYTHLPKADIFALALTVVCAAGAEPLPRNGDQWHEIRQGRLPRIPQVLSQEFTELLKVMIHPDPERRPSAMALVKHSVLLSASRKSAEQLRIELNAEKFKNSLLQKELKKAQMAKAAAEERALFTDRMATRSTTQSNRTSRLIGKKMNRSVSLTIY
Counter-ions that a name gives are not always drawn.
Test readout: PKMYT1 vs. WEE1 selectivity

# annotated cases, reported PKMYT1 vs. WEE1 selectivity shown
[
  {
    "Compound": "Cc1ccc(O)c(C)c1NC(=O)c1cnc(Nc2ccn(CC(=O)N3CCC[C@H](O)C3)n2)s1",
    "Test readout": "PKMYT1 vs. WEE1 selectivity",
    "Reported result": "Y (1000-5000 fold)"
  },
  {
    "Compound": "Cc1c[nH]nc1Nc1ncc(C(=O)Nc2c(C)ccc(O)c2C)s1",
    "Test readout": "PKMYT1 vs. WEE1 selectivity",
    "Reported result": "X (100-<1000 fold)"
  },
  {
    "Compound": "Cc1ccc(O)c(C)c1NC(=O)c1cnc(Nc2ccc(N3CCC(F)(F)CC3)cn2)s1",
    "Test readout": "PKMYT1 vs. WEE1 selectivity",
    "Reported result": "X (100-<1000 fold)"
  },
  {
    "Compound": "Cc1ccc(O)c(C)c1NC(=O)c1cnc(Nc2nccc3ccc(F)cc23)s1",
    "Test readout": "PKMYT1 vs. WEE1 selectivity",
    "Reported result": "Y (1000-5000 fold)"
  },
  {
    "Compound": "CCn1ccc(Nc2ncc(C(=O)Nc3c(C)ccc(O)c3C)s2)n1",
    "Test readout": "PKMYT1 vs. WEE1 selectivity",
    "Reported result": "X (100-<1000 fold)"
  }
]

Inquiry: Item "Cc1cn(-c2ccc(C(F)(F)F)nc2)nc1Nc1ncc(C(=O)Nc2c(C)ccc(O)c2C)s1" has what recorded PKMYT1 vs. WEE1 selectivity?
Reply text: X (100-<1000 fold)

Inquiry: Item "Cc1ccc(O)c(C)c1NC(=O)c1cnc(Nc2ccn(CC(=O)NC(C)(C)CO)n2)s1" has what recorded PKMYT1 vs. WEE1 selectivity?
Reply text: X (100-<1000 fold)

Inquiry: Item "Cc1ccc(O)c(C)c1NC(=O)c1cnc(Nc2ccn(CC(=O)NC3CCCC3)n2)s1" has what recorded PKMYT1 vs. WEE1 selectivity?
Reply text: Y (1000-5000 fold)

Inquiry: Item "Cc1cn(-c2ccc(Cl)cn2)nc1Nc1ncc(C(=O)Nc2c(C)ccc(O)c2C)s1" has what recorded PKMYT1 vs. WEE1 selectivity?
Reply text: X (100-<1000 fold)

Inquiry: Item "COCCNC(=O)Cn1ccc(Nc2ncc(C(=O)Nc3c(C)ccc(O)c3C)s2)n1" has what recorded PKMYT1 vs. WEE1 selectivity?
Reply text: Y (1000-5000 fold)

Inquiry: Item "Cc1ccc(O)c(C)c1NC(=O)c1cnc(NCc2ccncc2)s1" has what recorded PKMYT1 vs. WEE1 selectivity?
Reply text: Y (1000-5000 fold)

Inquiry: Item "Cc1ccc(O)c(C)c1NC(=O)c1cnc(Nc2cc3cc(F)ccc3cn2)s1" has what recorded PKMYT1 vs. WEE1 selectivity?
Reply text: X (100-<1000 fold)

Inquiry: Item Cc1ccc(O)c(C)c1NC(=O)c1cnc(Nc2ccn(CC(=O)NCCN3CCCC3)n2)s1 [BAA-167, (hydrochloride)] has what recorded PKMYT1 vs. WEE1 selectivity?
Reply text: X (100-<1000 fold)
